The reported measurements were obtained from paper PMC11771213.

measurement_target: porcine pancreatic lipase (PL) (Sus scrofa)
test_readout: IC50 (µM)
Note: unit µM is implicit; provide only the numeric part.

The value of IC50 measured for the compound CC(C)c1c(C(=O)Nc2ccccc2)c(-c2ccccc2)c(-c2ccc(F)cc2)n1CC[C@@H](O)C[C@@H](O)CC(=O)O [atorvastatin, reference compound] turned out to be 886

---

measurement_target: porcine pancreatic lipase (PL) (Sus scrofa, UniProt P00591)
Construct: purchased Jiangsu Jingmei Bio technology (Yancheng, China)
Sequence (P00591 1-450): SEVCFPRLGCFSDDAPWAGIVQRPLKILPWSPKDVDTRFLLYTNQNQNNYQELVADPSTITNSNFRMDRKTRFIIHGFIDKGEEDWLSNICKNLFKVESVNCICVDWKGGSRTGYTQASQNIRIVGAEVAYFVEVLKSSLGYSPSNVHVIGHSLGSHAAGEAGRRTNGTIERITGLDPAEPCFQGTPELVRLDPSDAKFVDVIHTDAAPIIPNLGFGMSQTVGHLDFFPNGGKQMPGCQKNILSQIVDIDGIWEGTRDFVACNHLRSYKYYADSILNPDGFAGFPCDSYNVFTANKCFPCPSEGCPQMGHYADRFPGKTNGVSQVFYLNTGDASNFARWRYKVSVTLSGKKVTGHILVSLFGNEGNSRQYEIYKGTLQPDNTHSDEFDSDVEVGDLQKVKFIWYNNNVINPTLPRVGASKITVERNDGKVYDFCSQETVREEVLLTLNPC
assay_overview: In vitro PL inhibition assay (p-nitrophenylbutyrate substrate)
Type: biochemical
applied_conditions: porcine PL 1 mg/mL in 100 mM Tris HCl, pre-incubation 37 °C 30 min, 5 mM p-nitrophenylbutyrate, absorbance 450 nm; from fitted inhibition curve; triplicate
No end group written: not given here.
Reported pIC50 values for the following substances.
// pIC50 here means minus log10 of the molar concentration (mol/L)

RPKHPIK [RK7, Arg-Pro-Lys-His-Pro-Ile-Lys]
3.10

Given item KVLPVPQ [KQ7, Lys-Val-Leu-Pro-Val-Pro-Gln] , the value recorded as its pIC50 is 3.12
